- Tested on: hCB2 (Homo sapiens)
- Sequence (P34972 whole entry): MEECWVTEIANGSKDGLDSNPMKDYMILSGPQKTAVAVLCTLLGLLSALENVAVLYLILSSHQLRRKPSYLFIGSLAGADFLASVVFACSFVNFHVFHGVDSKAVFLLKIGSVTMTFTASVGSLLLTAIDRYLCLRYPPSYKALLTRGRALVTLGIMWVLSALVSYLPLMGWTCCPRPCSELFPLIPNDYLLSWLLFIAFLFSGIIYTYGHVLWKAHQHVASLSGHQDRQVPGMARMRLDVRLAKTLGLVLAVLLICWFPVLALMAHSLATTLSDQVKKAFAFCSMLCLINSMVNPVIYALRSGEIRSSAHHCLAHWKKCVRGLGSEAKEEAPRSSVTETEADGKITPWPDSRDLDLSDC
- Procedure details: radioligand displacement binding at CB2 ([3H]CP55940, membranes of CHO-K1 cells over-expressing receptor)
# Lookup of reported pKi keyed by entry
Here pKi is given on a logarithmic scale as minus log10 of the concentration in mol/L.

Consider the reported pKi for these compounds:
Smiles notation | pKi
CC(C)(C)OC(=O)N1CCN(c2ncnc3c2nc(-c2ccccc2Cl)n3-c2ccc(Cl)cc2)CC1 | 5.47
Clc1ccc(-n2c(-c3ccccc3Cl)nc3c(N4CCC(Nc5ccccn5)CC4)ncnc32)cc1 | 5.34
CCCCC(=O)NC1CCN(c2ncnc3c2nc(-c2ccncc2C)n3-c2ccc(Cl)cc2)CC1 | 6.21

Input: Please report the measured pKi for O=C(Nc1ccccc1)N1CCN(c2ncnc3c2nc(-c2ccccc2Cl)n3-c2ccc(C(F)(F)F)nc2)CC1
Output: 6.10

Input: Tell me pKi reported for CS(=O)(=O)N1CCN(c2ncnc3c2nc(-c2ccccc2Cl)n3-c2ccc(Cl)cc2)CC1
Output: 5.78

###

- Tested on: hCB1 (Homo sapiens, UniProt P21554)
- Sequence (P21554 whole entry): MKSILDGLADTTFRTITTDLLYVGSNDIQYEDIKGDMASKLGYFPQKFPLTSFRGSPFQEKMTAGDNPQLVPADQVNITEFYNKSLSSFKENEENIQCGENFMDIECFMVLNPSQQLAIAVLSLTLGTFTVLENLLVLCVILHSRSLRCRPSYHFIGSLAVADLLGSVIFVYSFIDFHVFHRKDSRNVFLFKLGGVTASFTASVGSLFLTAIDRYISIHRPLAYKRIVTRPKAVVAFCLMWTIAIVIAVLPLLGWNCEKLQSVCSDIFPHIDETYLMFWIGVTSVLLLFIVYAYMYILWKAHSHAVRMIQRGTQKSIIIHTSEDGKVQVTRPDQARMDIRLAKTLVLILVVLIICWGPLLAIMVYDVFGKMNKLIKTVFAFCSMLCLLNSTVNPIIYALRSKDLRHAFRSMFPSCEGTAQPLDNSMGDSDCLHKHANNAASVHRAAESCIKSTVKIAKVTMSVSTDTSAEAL
- Procedure details: radioligand displacement binding at CB1 (membranes of CHO-K1 cells over-expressing receptor)
Readout name: Ki (nM)
Kindly answer with a numeric value in nM, unit omitted.

Compound | Observed result
CCCCC(=O)NC1(c2ccccc2)CCN(c2ncnc3c2nc(-c2ccncc2Cl)n3-c2ccc(Cl)cc2)CC1 | 17.9
FC(F)Oc1ccc(-n2c(-c3ccccc3Cl)nc3c(N4CCN(Cc5ccccc5Cl)CC4)ncnc32)cn1 | 7
O=C(Nc1ccccc1)N1CCN(c2ncnc3c2nc(-c2ccccc2Cl)n3-c2ccc(C(F)(F)F)nc2)CC1 | 39
CCCCC(=O)NC1CCN(c2ncnc3c2nc(-c2ccncc2Cl)n3-c2ccc(Cl)cc2)CC1 | 9.2
CS(=O)(=O)N1CCN(c2ncnc3c2nc(-c2ccccc2Cl)n3-c2ccc(Cl)cc2)CC1 | 24.4

Moving on to another compound below.
Input: Check the records and state Ki for CCCCC(=O)NC1CCN(c2ncnc3c2nc(-c2ccncc2C)n3-c2ccc(Cl)cc2)CC1
Output: 12.1

###

Some compounds, each annotated with its measured melting point.

Solved entries:
Smiles notation | melting point
O=C(NC1CCCC1)N1CCN(c2ncnc3c2nc(-c2ccccc2Cl)n3-c2ccc(Cl)cc2)CC1 | 248 to 250 °C
FC(F)(F)c1ccc(-n2c(-c3ccccc3Cl)nc3c(N4CCN(Cc5ccccc5Cl)CC4)ncnc32)cn1 | 189 to 190 °C

Now for another entry.
Input: Look up and state reported melting point for O=C(Nc1ccc(F)cc1)N1CCN(c2ncnc3c2nc(-c2ccccc2Cl)n3-c2ccc(Cl)cc2)CC1
Output: 234 to 235 °C

###

- Tested on: UniProt:P21554
- Procedure details: radioligand displacement binding at CB1 (membranes of CHO-K1 cells over-expressing receptor)
- Particulars: read-out: Binding affinity (Ki) at hCB1; radioligand displacement, CHO-K1 membranes; average of 3-6 measurements
Readout name: Ki (nM)
Quick note: give the figure in nM, leave out the unit.

Worked set:
Molecule | Tested on | Units of measure | Ki
O=C(Nc1ccccc1)N1CCN(c2ncnc3c2nc(-c2ccccc2Cl)n3-c2ccc(Cl)cc2)CC1 [Compound 121] | UniProt:P21554 | nM | 6
CN(Cc1ccccc1)C1CCN(c2ncnc3c2nc(-c2ccccc2Cl)n3-c2ccc(Cl)cc2)CC1 [Compound 39] | UniProt:P21554 | nM | 42
O=S(=O)(NC1CCN(c2ncnc3c2nc(-c2ccccc2Cl)n3-c2ccc(Cl)cc2)CC1)c1ccc(F)cc1F [Compound 5] | UniProt:P21554 | nM | 2
CCCS(=O)(=O)N1CCN(c2ncnc3c2nc(-c2ccccc2Cl)n3-c2ccc(Cl)cc2)CC1 [Compound 79] | UniProt:P21554 | nM | 1.2
O=C(Nc1ccccn1)N1CCN(c2ncnc3c2nc(-c2ccccc2Cl)n3-c2ccc(Cl)cc2)CC1 [Compound 122] | UniProt:P21554 | nM | 6
O=C(NCC1CCCCC1)N1CCN(c2ncnc3c2nc(-c2ccccc2Cl)n3-c2ccc(Cl)cc2)CC1 [Compound 120] | UniProt:P21554 | nM | 43
O=C(Nc1ccc(OC(F)F)nc1)N1CCN(c2ncnc3c2nc(-c2ccccc2Cl)n3-c2ccc(Cl)cc2)CC1 [Compound 44] | UniProt:P21554 | nM | 4
O=C(Nc1ccc(F)cc1)N1CCN(c2ncnc3c2nc(-c2ccccc2Cl)n3-c2ccc(Cl)cc2)CC1 [Compound 43] | UniProt:P21554 | nM | 19

Input: Provide measured Ki on UniProt:P21554 for O=C(Nc1ccccc1F)N1CCN(c2ncnc3c2nc(-c2ccccc2Cl)n3-c2ccc(Cl)cc2)CC1 [Compound 56] please.
Output: 6
